method.summary: Equilibrium solubility of FFA in DDW and PBS in the absence and presence of a predissolved polymer or a combination
Assay type: physicochemical
condition.context: PBS pH 4.5, 37 °C, pH 4.5, aqueous with cosolvent or surfactant or cyclodextrin, thermodynamic from solid, PBS pH 4.5, predissolved PEG (1 mg/mL) + PVP-VA (0.2 mg/mL), 37°C, 24 h
Experimental: The FFA solubility was determined by suspending an excess amount of crystalline materials of FFA I in small vials with 20 mL of a selected dissolution medium (i.e., DDW or PBS pH 4.5) in the absence and presence of a predissolved single polymer and a combination. […] Subsequently, the supernatant was diluted using ethanol, and the FFA concentration was determined using HPLC. The solid residues retrieved from the tests were dried for 24 h at ambient temperature and then analysed by PXRD. […]
readout.type: solubility at 24 h
Respond with a number, then the unit of measure.

I am curious: what solubility at 24 h value has been reported for O=C(O)c1ccccc1Nc1cccc(C(F)(F)F)c1 ?
11.4 µg/mL

###

method.summary: Equilibrium solubility of FFA in DDW and PBS in the absence and presence of a predissolved polymer or a combination
Type: physicochemical
condition.context: DDW, absence of polymer, 37°C, 24 h
readout.type: solubility at 24 h (µg/mL)
Please respond with the number in µg/mL and leave the unit unwritten.

Item O=C(O)c1ccccc1Nc1cccc(C(F)(F)F)c1 has what recorded solubility at 24 h?
10.1

###

method.summary: Equilibrium solubility of FFA in DDW and PBS in the absence and presence of a predissolved polymer or a combination
Assay type: physicochemical
condition.context: DDW, predissolved SLP (0.2 mg/mL), 37°C, 24 h
readout.type: solubility at 24 h (µg/mL)
Reply numerically in µg/mL, unit not repeated.

Which solubility at 24 h is listed for O=C(O)c1ccccc1Nc1cccc(C(F)(F)F)c1 ?
111

###

method.summary: Equilibrium solubility of FFA in DDW and PBS in the absence and presence of a predissolved polymer or a combination
Type: physicochemical
condition.context: DDW, 37 °C, aqueous with cosolvent or surfactant or cyclodextrin, thermodynamic from solid, predissolved PVP-VA (0.2 mg/mL), 24 h
readout.type: solubility at 24 h (µg/mL)
Number in µg/mL, nothing else.

Can you share its solubility at 24 h? I mean this molecule: O=C(O)c1ccccc1Nc1cccc(C(F)(F)F)c1
12

###

method.summary: Equilibrium solubility of FFA in DDW and PBS in the absence and presence of a predissolved polymer or a combination
Assay type: physicochemical
condition.context: PBS pH 6.8, 37 °C, pH 6.8, aqueous buffer, thermodynamic from solid, PBS pH 6.8, absence of polymer, 37°C
readout.type: solubility (µg/mL)
Record the value in µg/mL, omitting the unit from your answer.

Would you mind telling me what solubility value was observed for O=C(O)c1ccccc1Nc1cccc(C(F)(F)F)c1 ?
741

###

method.summary: Equilibrium solubility of FFA in DDW and PBS in the absence and presence of a predissolved polymer or a combination
Format: physicochemical
condition.context: DDW, 37 °C, aqueous with cosolvent or surfactant or cyclodextrin, thermodynamic from solid, predissolved PEG (1 mg/mL), 24 h
Description: The FFA solubility was determined by suspending an excess amount of crystalline materials of FFA I in small vials with 20 mL of a selected dissolution medium (i.e., DDW or PBS pH 4.5) in the absence and presence of a predissolved single polymer and a combination. […] Subsequently, the supernatant was diluted using ethanol, and the FFA concentration was determined using HPLC. The solid residues retrieved from the tests were dried for 24 h at ambient temperature and then analysed by PXRD. […]
readout.type: solubility at 24 h (mg/mL)
Give the number; mg/mL is assumed, so skip it.

Could you share which solubility at 24 h value was measured for O=C(O)c1ccccc1Nc1cccc(C(F)(F)F)c1 [FFA, Flufenamic acid] ?
0.0178
